List of nuclear beta-catenin stimulation values.
test: Wnt pathway potentiators raising nuclear beta-catenin – imaging, WNT3A-conditioned medium, mouse C2C12, NPC library, primary screen (AID 1117326); conditions: at 10 µM, stronger effect = higher value; further: reference of the scale not given here
MEASURED_QUANTITY: nuclear beta-catenin stimulation (%)

>>> assay_value("O=C(Nc1cccc(C2=NCCN2)c1)Nc1cccc(C2=NCCN2)c1")
1.5
>>> assay_value("Cc1nc(N)nc(N)c1-c1ccc(Cl)c(Cl)c1")
42.9
>>> assay_value("COc1cc(C)c(Cc2cnc(N)nc2N)cc1OC")
-0.5
>>> assay_value("Cc1cn[nH]c1")
-2.1
>>> assay_value("CC1=C(C)C(=O)C(C(CCCCCC(=O)O)c2ccccc2)=C(C)C1=O (configuration not stated)")
0
>>> assay_value("CCOC(=O)c1ncn2c1CN(C)C(=O)c1cc(F)ccc1-2")
0.8
>>> assay_value("O=C(O)c1cn(-c2ccc(F)cc2)c2cc(N3CCNCC3)c(F)cc2c1=O")
0.8
>>> assay_value("CC(C)NCC(O)COc1ccc(CCOCC2CC2)cc1 (configuration not stated)")
3.6
>>> assay_value("CC(C)(C)C(O)/C=C/c1ccc2c(c1)OCO2 (configuration not stated)")
0
>>> assay_value("Nc1ccc(S(=O)(=O)Nc2ccccn2)cc1")
-0.3
>>> assay_value("CCN(CCCc1ccccc1)CCCc1ccccc1")
1
>>> assay_value("CC1(C)O[C@@H]2C[C@H]3[C@@H]4CCC5=CC(=O)CC[C@]5(C)[C@@]4(F)[C@@H](O)C[C@]3(C)[C@]2(C(=O)CCl)O1")
-0.6

---

experiment: CRL1545 cell growth, single agent and combined, cisplatin and BGB IC20 combos (AID 1671464); settings: CRL1545 osteosarcoma cells, at 0.5 µM, stronger effect = higher value;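 further: cells exposed to compound for 96 hours before readout; 0% = vehicle DMSO and 100% = high DMSO killing control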
List of inhibition values.
MEASURED_QUANTITY: inhibition (%)

>>> assay_value("C[C@H]1COc2c(C3(N)CC3)c(F)cc3c(=O)c(C(=O)O)cn1c23")
9.56
>>> assay_value("Cc1nc2ccc(CN(C)c3ccc(C(=O)N[C@@H](CCC(=O)O)C(=O)O)s3)cc2c(=O)[nH]1")
-1.83
>>> assay_value("O=C(O)P(=O)(O)O")
-83.7
>>> assay_value("O=c1c(O)c(-c2ccc(O)c(O)c2)oc2cc(O)cc(O)c12")
-39.9
>>> assay_value("CC(N)C12CC3CC(CC(C3)C1)C2 (centres undefined)")
-36.2
>>> assay_value("Cc1ccnc2c1NC(=O)c1cccnc1N2C1CC1")
-10.3
>>> assay_value("Nc1[nH]c(=O)ncc1F")
-33
>>> assay_value("O=NN(CCCl)C(=O)NCCCl")
-14.2
>>> assay_value("Nc1nc(=S)c2[nH]cnc2[nH]1")
-1.16

---

assay: RCMB18 cell growth, single agent and combined, cisplatin and BGB IC40 combos (AID 1671462); conditions: RCMB18 medulloblastoma cells, cisplatin combo, at 5 µM, stronger effect = higher value;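 further: cells exposed to compound for four days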
List of inhibition values.
MEASURED_QUANTITY: inhibition (%)

>>> assay_value("Nc1[nH]c(=O)ncc1F")
12.7
>>> assay_value("Cc1nc2ccc(CN(C)c3ccc(C(=O)N[C@@H](CCC(=O)O)C(=O)O)s3)cc2c(=O)[nH]1")
14
>>> assay_value("O=NN(CCCl)C(=O)NCCCl")
-0.239
>>> assay_value("CC(N)C12CC3CC(CC(C3)C1)C2 (stereo not given)")
-32.4
>>> assay_value("CCn1cc(C(=O)O)c(=O)c2cc3c(cc21)OCO3")
2.43
>>> assay_value("Nc1nc2c(ncn2COC(CO)CO)c(=O)[nH]1")
102
>>> assay_value("NC(=O)NO")
15.7
>>> assay_value("C[C@H]1COc2c(C3(N)CC3)c(F)cc3c(=O)c(C(=O)O)cn1c23")
-20.9
>>> assay_value("O=C(O)CCCCCCCC(=O)O")
-40.4
>>> assay_value("Cc1ccnc2c1NC(=O)c1cccnc1N2C1CC1")
24.6

---

experiment: inhibition of endothelial tube formation, primary screen, imaging, VEGF stimulated, CD31 staining, tube area, NPC library (AID 1117340); details: VEGF-stimulated ADSC/ECFC co-culture, at 10 µM, stronger effect = higher value
Classification field: enter rule met for tube area decrease values not below 10%, rule not met for values below it.

>>> class_label("CCn1cc(C(=O)O)c(=O)c2cc3c(cc21)OCO3")
"rule met"
>>> class_label("CC(=O)Nc1ccc(OCC(O)CNC(C)C)cc1 (stereo not given)")
"rule not met"
>>> class_label("C#CCN[C@@H]1CCc2ccccc21")
"rule not met"
>>> class_label("CO[C@H]1C=CO[C@@]2(C)Oc3c(C)c(O)c4c(O)c(c(/C=N/N5CCN(C)CC5)c(O)c4c3C2=O)NC(=O)/C(C)=C\\C=C[C@H](C)[C@H](O)[C@@H](C)[C@@H](O)[C@@H](C)[C@H](OC(C)=O)[C@@H]1C")
"rule met"
>>> class_label("NC(N)=Nc1nc(CSCC/C(N)=N/S(N)(=O)=O)cs1")
"rule not met"
>>> class_label("Cc1c(O)cccc1C(=O)N[C@@H](CSc1ccccc1)[C@H](O)CN1C[C@H]2CCCC[C@H]2C[C@H]1C(=O)NC(C)(C)C")
"rule met"
>>> class_label("CCCCOc1ccc(C(=O)CCN2CCCCC2)cc1")
"rule met"
>>> class_label("Nc1ncnc2c1ncn2[C@@H]1O[C@H](CO)[C@@H](O)[C@H]1O")
"rule met"
>>> class_label("CC(c1cc2ccccc2s1)N(O)C(N)=O (stereo not given)")
"rule not met"
>>> class_label("CN(C/C=C/C#CC(C)(C)C)Cc1cccc2ccccc12")
"rule not met"

---

test: growth inhibition, single agent or in combination, cell-based, chromothripsis tumors, cisplatin or BGB combos (AID 1671449); settings: LFS_MB_P medulloblastoma cells, measured here: combination with cisplatin, at 5 µM, stronger effect = higher value;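 further: cells exposed for 96 hours; 0% = vehicle DMSO and 100% = killing by high DMSO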
MEASURED_QUANTITY: inhibition (%)

>>> assay_value("Cc1nc2ccc(CN(C)c3ccc(C(=O)N[C@@H](CCC(=O)O)C(=O)O)s3)cc2c(=O)[nH]1")
-36.4
>>> assay_value("NC(=O)NO")
7.33
>>> assay_value("O=C(O)P(=O)(O)O")
-12.6
>>> assay_value("CCN1CCN(c2cc3c(cc2F)c(=O)c(C(=O)O)cn3C2CC2)CC1")
-7.57
>>> assay_value("CN(C)c1ccc(C(=C2C=CC(=[N+](C)C)C=C2)c2ccc(N(C)C)cc2)cc1")
112
>>> assay_value("O=C(O)CCCCCCCC(=O)O")
-13.6
>>> assay_value("CC(N)C12CC3CC(CC(C3)C1)C2 (stereo unspecified)")
-22.9
>>> assay_value("O=c1c(O)c(-c2ccc(O)c(O)c2)oc2cc(O)cc(O)c12")
20.2
>>> assay_value("Cc1ccnc2c1NC(=O)c1cccnc1N2C1CC1")
-8.68
>>> assay_value("O=NN(CCCl)C(=O)NCCCl")
-36.8
>>> assay_value("O=c1oc2c(O)c(O)cc3c(=O)oc4c(O)c(O)cc1c4c23")
-36.9

---

assay: NPC library primary testing for decreased DLD-1 cell viability via CellTiter-Glo (AID 1117346); settings: DLD-1 viability, CellTiter-Glo luminescence; at 20 µM (top of the series)
The source made the active and inactive calls.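 The calls were made as follows: active = compounds that lower survival of DLD-1 colon cancer cells in the luminescence readout, no cutoff given; inactive = the rest.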
Outcomes: yes = active, no = inactive

>>> class_label("COCc1c(C(C)C)nc(C(C)C)c(/C=C/[C@@H](O)C[C@@H](O)CC(=O)O)c1-c1ccc(F)cc1")
"yes"
>>> class_label("C[N+]12CCC(CC1)C(OC(=O)C(O)(c1ccccc1)c1ccccc1)C2 (centres undefined)")
"no"
>>> class_label("CCCC(C(=O)OCCN(CC)CC)(c1ccccc1)c1ccccc1")
"yes"
>>> class_label("O=C(O)P(=O)(O)O")
"no"
>>> class_label("COC(=O)[C@H]1[C@H]2C[C@@H]3c4[nH]c5cc(OC)ccc5c4CCN3C[C@H]2C[C@@H](OC(=O)c2cc(OC)c(OC)c(OC)c2)[C@@H]1OC")
"no"
>>> class_label("NC1CCN(c2nc3c(cc2F)c(=O)c(C(=O)O)cn3-c2ccc(F)cc2F)C1 (centres undefined)")
"no"
>>> class_label("Cc1c(NC(=O)c2cccnc2)c(=O)n(-c2ccccc2)n1C")
"no"
>>> class_label("O=C(O)CCCCC1CCSS1 (centres undefined)")
"no"
>>> class_label("CC(N)C12CC3CC(CC(C3)C1)C2 (centres undefined)")
"no"
>>> class_label("CCCCCCOc1ccccc1C(N)=O")
"no"
>>> class_label("CC(=O)Nc1c(I)cc(I)c(C(=O)O)c1I")
"no"
>>> class_label("COc1c2occc2c(OC)c2c(=O)cc(C)oc12")
"no"
>>> class_label("COc1ccc(CN(CCN(C)C)c2ncccn2)cc1")
"no"
>>> class_label("CC(=O)Nc1ccc(OCC(O)CNC(C)C)cc1 (centres undefined)")
"no"
>>> class_label("O=c1cc(CO)occ1O")
"no"
>>> class_label("Nc1nccs1")
"yes"
>>> class_label("CCCCc1nc(Cl)c(CO)n1Cc1ccc(-c2ccccc2-c2nn[nH]n2)cc1")
"no"
>>> class_label("CC1(C)NC(=O)N(c2ccc([N+](=O)[O-])c(C(F)(F)F)c2)C1=O")
"no"
>>> class_label("O=C1OCCN1/N=C/c1ccc([N+](=O)[O-])o1")
"no"
>>> class_label("C[C@]12CC[C@@H]3c4ccc(O)cc4CC[C@H]3[C@@H]1C[C@@H](O)[C@@H]2O")
"no"
>>> class_label("COc1cc2c(cc1OC)C(=O)C(CC1CCN(Cc3ccccc3)CC1)C2 (centres undefined)")
"no"
>>> class_label("O=C(O)c1ccc(S(=O)(=O)N(Cl)Cl)cc1")
"no"
>>> class_label("CC(=O)Nc1ccc(O)cc1")
"no"
>>> class_label("Oc1c(Cl)cc(Cl)c(Cl)c1Cc1c(O)c(Cl)cc(Cl)c1Cl")
"yes"
